- tested system: Recombinant GMPPNP-loaded KRAS G12C (KRAS-G12C(ON), active form) (Homo sapiens, UniProt P01116, G12C)
- Sequence (P01116 1-188 isoform P01116-2 G12C): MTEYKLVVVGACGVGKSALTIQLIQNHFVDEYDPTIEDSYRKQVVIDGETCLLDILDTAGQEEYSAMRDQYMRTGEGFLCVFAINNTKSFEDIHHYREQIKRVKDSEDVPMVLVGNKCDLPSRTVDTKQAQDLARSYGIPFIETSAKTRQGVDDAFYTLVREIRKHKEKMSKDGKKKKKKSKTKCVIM
- test summary: KRAS G12C RAF Disruption Assay (HTRF)
- Type: biochemical
- experimental parameters: GMPPNP-loaded KRAS G12C 5 nM, GST-RAF1 RBD 9 nM, values in nM, read-out: KRASG12C RAF Disruption Assay (IC50)
observation type: IC50 (nM)
Return type: number; implicit unit nM.

// worked examples, IC50 included
[[record]]
compound = "N#CC[C@H]1CN(c2nc(OC[C@@]34CCCN3C[C@H](F)C4)nc3c(F)c(-c4cc(O)cc5ccccc45)ccc23)CCN1C(=O)/C(F)=C/c1ccccn1"
meas_value = 23

[[record]]
compound = "CN1CCC[C@H]1COc1nc(N2CCN(C(=O)/C(F)=C/c3nccs3)[C@@H](CC#N)C2)c2ccc(-c3c(O)cccc3F)c(F)c2n1"
meas_value = 270

[[record]]
compound = "CN1CCC[C@H]1COc1nc(N2CCN(C(=O)/C(F)=C/c3nccs3)[C@@H](CC#N)C2)c2ccc(-c3cc(O)cc4ccccc34)c(F)c2n1"
meas_value = 16


response.value for Cc1cccc(/C=C(\F)C(=O)N2CCN(c3nc(OC[C@@H]4CCCN4C)nc4c(F)c(-c5cccc6cccc(Cl)c56)ccc34)C[C@@H]2CC#N)n1 (field: IC50) = 25

response.value for CCc1cccc2cccc(-c3ccc4c(N5CCN(C(=O)/C(F)=C/c6ccccn6)[C@@H](CC#N)C5)nc(OC[C@@H]5CCCN5C)nc4c3F)c12 (field: IC50) = 260

----------
- tested system: Recombinant GMPPNP-loaded KRAS G12C (KRAS-G12C(ON), active form) (Homo sapiens, UniProt P01116, G12C)
- test summary: KRAS G12C RAF Disruption Assay (HTRF)
- Assay type: biochemical
- experimental parameters: GMPPNP-loaded KRAS G12C 5 nM, GST-RAF1 RBD 9 nM, values given in μM, read-out: KRASG12C RAF Disruption Assay (IC50)
// NB: equality with 70 µM counts as condition not met; only IC50 strictly below is condition met

Does O=C(/C(F)=C/c1nccs1)N1[C@@H]2CC[C@H]1CN(c1nc(OC[C@@]34CCCN3C[C@H](F)C4)nc3c(F)c(-c4cccc5cccc(Cl)c45)ccc13)C2 have IC50 strictly under 70 µM?
condition not met

Does Cc1cc(N)nc(-c2c(Cl)cc3c(N4CC5CN(C(=O)/C(F)=C/c6nccs6)C5C4)nc(OC[C@]45CCCN4C[C@H](F)C5)nc3c2F)c1C(F)(F)F (single isomer, unassigned) [Example 15, Isomer 2] have IC50 strictly under 70 µM?
condition met

----------
- tested system: Recombinant GMPPNP-loaded KRAS G12C (KRAS-G12C(ON), active form) (Homo sapiens, UniProt P01116, G12C)
- test summary: KRAS G12C RAF Disruption Assay (HTRF)
- Type: biochemical
- experimental parameters: GMPPNP-loaded KRAS G12C 5 nM, GST-RAF1 RBD 9 nM, values given in μM, read-out: KRASG12C RAF Disruption Assay (IC50)
observation type: IC50 (µM)
Return type: number; implicit unit µM.

// worked examples, IC50 included
[[record]]
compound = "C[C@H]1CN(C(=O)/C(F)=C/c2nccs2)CCN1c1nc(OC[C@@H]2CCCN2C)nc2c(F)c(-c3cccc4cccc(Cl)c34)c(Cl)cc12 [Example 1]"
units = "µM"
meas_value = 49

[[record]]
compound = "CN1CCC[C@H]1COc1nc(N2C[C@H]3CC[C@@H](C2)N3C(=O)/C(F)=C/c2ccccn2)c2cc(Cl)c(-c3cc(O)cc4ccccc34)c(F)c2n1 [Example 8]"
units = "µM"
meas_value = 9.6

[[record]]
compound = "Cc1cc(N)nc(-c2c(Cl)cc3c(N4CC5CCC(C4)N5C(=O)/C(F)=C/c4ccccn4)nc(OC[C@@]45CCCN4C[C@H](F)C5)nc3c2F)c1C(F)(F)F [Example 7]"
units = "µM"
meas_value = 2


response.value for Cc1cc(N)nc(-c2c(Cl)cc3c(N4C[C@H](C)N(C(=O)/C(F)=C/c5nccs5)C[C@H]4C)nc(OCC45CCCN4CC(F)C5)nc3c2F)c1C(F)(F)F (some centres unmarked) [Example 19] (field: IC50) = 3.2
